- System: CYP11A1 (Homo sapiens)
- Construct: human H295R adrenocortical carcinoma cell line was used as source of enzyme; endogenous in cells
- Sequence (P05108 40-521): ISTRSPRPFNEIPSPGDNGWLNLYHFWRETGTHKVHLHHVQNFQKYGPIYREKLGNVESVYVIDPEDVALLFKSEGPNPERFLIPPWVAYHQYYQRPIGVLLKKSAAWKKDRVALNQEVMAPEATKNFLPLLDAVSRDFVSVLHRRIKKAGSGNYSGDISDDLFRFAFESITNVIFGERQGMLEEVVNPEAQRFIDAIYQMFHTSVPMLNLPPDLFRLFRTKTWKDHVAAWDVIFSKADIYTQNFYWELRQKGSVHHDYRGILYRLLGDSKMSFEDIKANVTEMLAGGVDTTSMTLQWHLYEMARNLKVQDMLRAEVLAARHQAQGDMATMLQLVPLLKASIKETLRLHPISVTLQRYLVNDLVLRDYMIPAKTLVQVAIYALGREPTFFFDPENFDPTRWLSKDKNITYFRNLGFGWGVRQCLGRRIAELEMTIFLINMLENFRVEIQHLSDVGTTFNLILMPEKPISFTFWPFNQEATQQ
- Assay protocol: CYP11A1 inhibition: modified isocaproic acid release assay (IARA) in H295R cells
- Condition notes: human H295R adrenocortical carcinoma cells treated three days, 3 nM [24,25-3H]-labelled cholesterol, 1% DMSO, 10 concentrations in duplicates; read-out: IC50 of the test compounds on CYP11A1 inhibition
pIC50: −log10 of the molar value.
Readout: pIC50

Notebook entry, CYP11A1 (Homo sapiens) assay: pIC50 of `CN(C)C(=O)c1ccc(COc2coc(CN3CCc4ccccc4C3)cc2=O)cc1` = ? 5.70 to 6.52

One more compound: `N#Cc1ccc(COc2coc(CN3CCc4ccccc4C3)cc2=O)cc1Cl` 5.70 to 6.52

One more compound: CN(C1CCC(COc2coc(CN3Cc4ccccc4C3)cc2=O)CC1)S(C)(=O)=O (centres unmarked) 6.52 to 6.82

One more compound: `COc1ccc2c(c1)CN(Cc1cc(=O)c(OCc3ccc(C(=O)N4CC(F)(F)C4)cc3)co1)C2` > 6.82

One more compound: `CS(=O)(=O)c1ccc(COc2coc(CN3Cc4ccccc4C3)cc2=O)cc1F` 5.70 to 6.52

One more compound: `O=c1cc(CN2Cc3ccccc3C2)occ1OCc1ccc(C2(O)CCC2)cc1` > 6.82

One more compound: `O=c1cc(CN2Cc3ccccc3C2)occ1OCc1cccc([N+](=O)[O-])c1` 5.70 to 6.52

One more compound: `N#Cc1cccc(COc2coc(CN3CCc4ccccc4C3)cc2=O)c1` 5.70 to 6.52

====

- System: CYP11A1 (Homo sapiens, UniProt P05108)
- Construct: human H295R adrenocortical carcinoma cell line was used as source of enzyme; endogenous in cells
- Assay protocol: CYP11A1 inhibition: modified isocaproic acid release assay (IARA) in H295R cells
- Condition notes: human H295R adrenocortical carcinoma cells treated three days, 3 nM [24,25-3H]-labelled cholesterol, 1% DMSO, 10 concentrations in duplicates; read-out: IC50 of the test compounds on CYP11A1 inhibition
Readout: IC50

Entry `CC(C)N(C(=O)c1ccc(COc2coc(CN3Cc4ccccc4C3)cc2=O)cc1)C(C)C` has what IC50? < 150 nM

One more compound: `CCS(=O)(=O)N1CC=C(COc2coc(CN3Cc4ccccc4C3)cc2=O)CC1` 150 to 300 nM

One more compound: O=C(NC1CCSC1=O)c1ccc(COc2coc(CN3Cc4ccccc4C3)cc2=O)cc1 (stereo not shown) 301 to 2000 nM

One more compound: `CN(C)S(=O)(=O)N1CCC(COc2coc(CN3Cc4ccc(F)cc4C3)cc2=O)CC1` < 150 nM

====

For each entry below, report its pIC50 value.
- System: CYP11A1 (Homo sapiens)
- Construct: human H295R adrenocortical carcinoma cell line was used as source of enzyme; endogenous in cells
- Assay protocol: CYP11A1 inhibition: modified isocaproic acid release assay (IARA) in H295R cells
- Condition notes: human H295R adrenocortical carcinoma cells treated three days, 3 nM [24,25-3H]-labelled cholesterol, 1% DMSO, 10 concentrations in duplicates; read-out: IC50 of the test compounds on CYP11A1 inhibition
pIC50: −log10 of the molar value.

Entry `CS(=O)(=O)N1CCC(CCCOc2coc(CN3Cc4ccccc4C3)cc2=O)CC1` has what pIC50? > 6.82

One more compound: `C=CC(=O)N1CCC(COc2coc(CN3Cc4ccccc4C3)cc2=O)CC1` 6.52 to 6.82

One more compound: `CS(=O)(=O)N1CCC(COc2coc(CN3Cc4ccc(F)cc4C3)cc2=O)CC1` > 6.82

One more compound: `CN(CCO)S(=O)(=O)c1ccc(COc2coc(CN3Cc4ccccc4C3)cc2=O)cc1` > 6.82

One more compound: `O=c1cc(CN2Cc3ccccc3C2)occ1OCC1CCN(S(=O)(=O)C2COC2)CC1` > 6.82

One more compound: `CC(C)(C)C(=O)N1CCC(COc2coc(CN3Cc4ccccc4C3)cc2=O)CC1` > 6.82

One more compound: `CN(C)S(=O)(=O)N1CCC(COc2coc(CN3Cc4ccccc4C3)cc2=O)CC1` > 6.82

One more compound: `CNC(=O)N1CCC(COc2coc(CN3Cc4ccccc4C3)cc2=O)CC1` 6.52 to 6.82

One more compound: `O=C(c1ccc(COc2coc(CN3Cc4ccccc4C3)cc2=O)cc1)N1CCCCC1` 6.52 to 6.82

One more compound: `CC(C)CC(=O)C(=O)N1CCC(COc2coc(CN3Cc4ccccc4C3)cc2=O)CC1` > 6.82

One more compound: CS(=N)c1ccc(COc2coc(CN3Cc4ccccc4C3)cc2=O)cc1 (centres unmarked) 6.52 to 6.82

One more compound: N=S1(=O)CCC(COc2coc(CN3Cc4ccccc4C3)cc2=O)CC1 (centres unmarked) 5.70 to 6.52

One more compound: `CS(C)(=O)=NC(=O)c1ccc(COc2coc(CN3Cc4ccccc4C3)cc2=O)cc1` > 6.82

One more compound: `COc1cc(COc2coc(CN3Cc4ccccc4C3)cc2=O)ccn1` 5.70 to 6.52

One more compound: `COCCN(C)S(=O)(=O)c1ccc(COc2coc(CN3Cc4ccccc4C3)cc2=O)cc1` 6.52 to 6.82

One more compound: `NC(=O)c1ccc(COc2coc(CN3Cc4ccccc4C3)cc2=O)c(F)c1` 6.52 to 6.82

One more compound: `O=C(COc1coc(CN2Cc3ccccc3C2)cc1=O)N1CCN(Cc2ccccc2)CC1` 5.70 to 6.52

====

- System: CYP11A1 (Homo sapiens, UniProt P05108)
- Construct: human H295R adrenocortical carcinoma cell line was used as source of enzyme; endogenous in cells
- Sequence (P05108 40-521): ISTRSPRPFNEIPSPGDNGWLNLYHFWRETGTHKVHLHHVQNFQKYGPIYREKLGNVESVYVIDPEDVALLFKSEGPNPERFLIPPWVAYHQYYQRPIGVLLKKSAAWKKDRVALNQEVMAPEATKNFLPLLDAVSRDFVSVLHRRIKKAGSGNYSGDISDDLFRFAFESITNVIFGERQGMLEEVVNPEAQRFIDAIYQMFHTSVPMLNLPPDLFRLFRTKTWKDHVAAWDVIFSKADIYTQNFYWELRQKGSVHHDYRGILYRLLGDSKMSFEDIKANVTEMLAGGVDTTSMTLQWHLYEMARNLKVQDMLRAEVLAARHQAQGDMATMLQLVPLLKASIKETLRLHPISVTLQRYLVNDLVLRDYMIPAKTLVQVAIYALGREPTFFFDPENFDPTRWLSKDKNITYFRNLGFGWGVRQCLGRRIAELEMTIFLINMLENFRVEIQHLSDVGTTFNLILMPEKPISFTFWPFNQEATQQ
- Assay protocol: CYP11A1 inhibition: modified isocaproic acid release assay (IARA) in H295R cells
- Condition notes: human H295R adrenocortical carcinoma cells treated three days, 3 nM [24,25-3H]-labelled cholesterol, 1% DMSO, 10 concentrations in duplicates; read-out: IC50 of the test compounds on CYP11A1 inhibition
Readout: IC50

Entry CCS(=N)(=O)c1ccc(COc2coc(CN3Cc4ccccc4C3)cc2=O)cc1 (centres unmarked) has what IC50? 150 to 300 nM

One more compound: `O=C(c1ccc(COc2coc(CN3Cc4ccccc4C3)cc2=O)cc1)N1CCC(O)CC1` 301 to 2000 nM

One more compound: `CS(=O)(=O)N1CCC(F)(COc2coc(CN3Cc4ccccc4C3)cc2=O)CC1` 150 to 300 nM

One more compound: `NC(=O)c1ccc(COc2coc(CN3CCc4ccccc4C3)cc2=O)c(F)c1` 301 to 2000 nM

One more compound: `O=c1cc(CN2Cc3ccccc3C2)occ1OCC1CCCCC1` < 150 nM

One more compound: `O=c1cc(CN2Cc3ccc(C(F)(F)F)cc3C2)occ1OCc1ccc(C2(O)COC2)cc1` < 150 nM

One more compound: `O=c1cc(CN2Cc3ccccc3C2)occ1OCC1CCS(=O)(=O)CC1` 301 to 2000 nM

One more compound: `CC(C)(O)c1ccc(COc2coc(CN3Cc4cccc(F)c4C3)cc2=O)cc1` 301 to 2000 nM

One more compound: `CC(C)CS(=O)(=O)N1CCC(COc2coc(CN3Cc4ccccc4C3)cc2=O)CC1` < 150 nM

One more compound: `O=c1cc(CN2Cc3ccccc3C2)occ1OCc1ccc(-n2cccn2)cc1` 150 to 300 nM

One more compound: `CNC(=O)c1ccc(COc2coc(CN3Cc4ccccc4C3)cc2=O)cc1F` 301 to 2000 nM
